Origin of measurements: paper PMC12693419

# Assay Comment: In vitro inhibition of linoleic acid lipid peroxidation (AAPH)
# Test Settings: 100 μM; anti-lipid peroxidation
Short version: AAPH Inh. at 100 μΜ at least 70% is TRUE, less is FALSE.

Known results for molecules:
In: # bool: AAPH Inh. at 100 μΜ of C/C(=N\O)c1ccc(NC(=O)COC(=O)/C(=C/c2cccs2)c2ccccc2)cc1 >= 70%
Out: FALSE

In: # bool: AAPH Inh. at 100 μΜ of O=C(OCc1c(-c2ccccc2)no[n+]1[O-])/C(=C/c1cccc2ccccc12)c1ccccc1 >= 70%
Out: TRUE

In: # bool: AAPH Inh. at 100 μΜ of O=C(C=Cc1ccccc1)OCc1c(-c2ccccc2)no[n+]1[O-] >= 70%
Out: TRUE

In: # bool: AAPH Inh. at 100 μΜ of O=C(/C=C/c1cccs1)OCc1c(-c2ccccc2)no[n+]1[O-] >= 70%
Out: TRUE

In: # bool: AAPH Inh. at 100 μΜ of O=C(/C=C/c1ccco1)OCc1c(-c2ccccc2)no[n+]1[O-] >= 70%
Out: TRUE

***
In: # bool: AAPH Inh. at 100 μΜ of C/C(=N\O)c1ccc(NC(=O)COC(=O)C=Cc2ccccc2)cc1 >= 70%
Out: FALSE

In: # bool: AAPH Inh. at 100 μΜ of C/C(=N\O)c1ccc(NC(=O)COC(=O)/C=C/c2cccs2)cc1 >= 70%
Out: FALSE

In: # bool: AAPH Inh. at 100 μΜ of O=C(/C=C/c1cc2ccccc2o1)OCc1c(-c2ccccc2)no[n+]1[O-] >= 70%
Out: TRUE
